Target: T1, human ENTPD2 expressed on cells (human, UniProt Q9Y5L3 1-495)
T1 sequence: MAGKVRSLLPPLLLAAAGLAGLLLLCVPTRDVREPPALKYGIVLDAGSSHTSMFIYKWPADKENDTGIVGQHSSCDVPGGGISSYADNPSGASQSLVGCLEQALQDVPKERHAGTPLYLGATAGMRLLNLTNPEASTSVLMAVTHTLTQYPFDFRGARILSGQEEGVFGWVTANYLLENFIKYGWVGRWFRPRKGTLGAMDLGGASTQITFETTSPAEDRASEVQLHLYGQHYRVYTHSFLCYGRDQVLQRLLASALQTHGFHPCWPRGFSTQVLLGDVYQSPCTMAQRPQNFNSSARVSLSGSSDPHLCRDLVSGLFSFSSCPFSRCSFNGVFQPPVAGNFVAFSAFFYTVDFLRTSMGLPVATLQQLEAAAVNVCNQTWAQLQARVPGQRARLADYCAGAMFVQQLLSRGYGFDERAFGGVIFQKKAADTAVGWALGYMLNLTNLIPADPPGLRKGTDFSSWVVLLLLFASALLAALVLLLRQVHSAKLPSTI
Assay: cell-based or functional assay
readout type: % inhibition, RKO Assay (%)

binder="ANTI-HUMAN ENTPD2 MAB9 (antibody, human IgG1, lambda, V domains shown, also called Anti-ENTPD2 mAb9) VH: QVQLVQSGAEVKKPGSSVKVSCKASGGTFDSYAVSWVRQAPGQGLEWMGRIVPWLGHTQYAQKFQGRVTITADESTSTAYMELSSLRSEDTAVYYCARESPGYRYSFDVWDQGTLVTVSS VL: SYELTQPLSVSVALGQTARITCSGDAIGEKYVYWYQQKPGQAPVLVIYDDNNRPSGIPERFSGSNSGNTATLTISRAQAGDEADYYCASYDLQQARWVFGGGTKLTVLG" result_number=70
binder="ANTI-HUMAN ENTPD2 MAB5 (antibody, human IgG1, kappa, V domains shown, humanized and optimized from mAb16; human IgG1, kappa; also called Anti-ENTPD2 mAb5) VH: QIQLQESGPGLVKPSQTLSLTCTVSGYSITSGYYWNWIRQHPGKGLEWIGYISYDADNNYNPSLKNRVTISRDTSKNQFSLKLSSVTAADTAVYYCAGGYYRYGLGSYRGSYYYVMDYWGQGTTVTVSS VL: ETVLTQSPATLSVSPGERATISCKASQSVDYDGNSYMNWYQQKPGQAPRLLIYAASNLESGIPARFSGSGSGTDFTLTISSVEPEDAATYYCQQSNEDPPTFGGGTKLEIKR" result_number=80
